Target: VAV1 (Homo sapiens, UniProt P15498+Q96SW2)
Construct: A heterozygous VAV1 C-terminal HiBiT knock-in pool was generated at Monte Rosa Therapeutics from a clonal Jurkat cell; endogenous in cells; host or cells: Jurkat clone stably expressing LgBiT, homozygous GSPT1-G575N; heterozygous VAV1-HiBiT knock-in pool
Test: VAV1 degradation activity, VAV1-HiBiT knock-in Jurkat luminescence assay (Example A, Table 1)
Format: cell-based
Conditions: VAV1-HiBiT knock-in Jurkat cells, luminescence read at 6 and 24 hours; read-out: VAV1 DC50
REPORTED PROPERTY: DC50 (nM)

P = O=C1CCC(c2cccc(-c3ccc(CN4CC5(F)CC(C5)C4=O)cc3)c2Cl)C(=O)N1 (stereo not shown)
Q = CN(C(=O)c1ccn(C)n1)c1ccc(-c2cccc(C3CCC(=O)NC3=O)c2Cl)cc1 (stereo not shown)
R = O=C1CCC(c2cccc(-c3ccc(CCn4ccccc4=O)cc3)c2Cl)C(=O)N1 (stereo not shown)
S = O=C1CCC(c2cccc(-c3ccc(N4CCOC4=O)cc3)c2Cl)C(=O)N1 (stereo not shown)
Rank descending by DC50. // rank by listing labels in the order requested S, Q, R, P
(S: 7990 nM, Q: 98.9 nM, R: 11.7 nM, P: 6.83 nM)

Entry source: patent US12257247B2
